The measured values listed here are drawn from ChEMBL document CHEMBL4033786.

- assayed_system: C-X-C chemokine receptor type 2 (Homo sapiens, UniProt P25025)
- Sequence (P25025 whole entry, the tested form may be a part): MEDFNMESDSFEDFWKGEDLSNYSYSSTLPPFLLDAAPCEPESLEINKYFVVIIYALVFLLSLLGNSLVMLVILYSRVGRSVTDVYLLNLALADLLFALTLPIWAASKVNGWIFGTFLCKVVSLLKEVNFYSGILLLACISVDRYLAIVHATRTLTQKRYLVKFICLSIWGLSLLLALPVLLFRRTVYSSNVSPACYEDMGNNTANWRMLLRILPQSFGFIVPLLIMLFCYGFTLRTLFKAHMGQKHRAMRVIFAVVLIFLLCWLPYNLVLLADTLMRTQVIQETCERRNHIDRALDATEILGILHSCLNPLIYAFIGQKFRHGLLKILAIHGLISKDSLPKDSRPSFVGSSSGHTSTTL
- method_description: Antagonist activity at TEV protease cleavage site linked GAL4-VP16-fused recombinant human CXCR2 expressed in cells assessed as inhibition of […] human CXCL1-stimulated beta-arrestin recruitment by CCF4-AM-fluorescence based FRET assay
- Type: cell-based
- conditions: read-out: pIC50 (converted)
value_type: IC50 (nM)
Dear colleague, please return just the value in nM, with no unit written.

Sample answers from the record:
compound="CC1CCC(NC(=O)Nc2ccc(Cl)c(S(=O)(=O)C(C)C)c2O)C1 (racemic)" recorded_number=200
compound=CC1=CCC[C@H]1NC(=O)Nc1ccc(Cl)c(S(=O)(=O)C2(F)CCOCC2)c1O recorded_number=0.2
compound="CC(C)S(=O)(=O)c1c(Cl)ccc(NC(=O)NC2CCCC=C2Cl)c1O (racemic)" recorded_number=10
compound="CC1CCCC1NC(=O)Nc1ccc(Cl)c(S(=O)(=O)C(C)C)c1O (racemic)" recorded_number=10
compound=CC(C)(CCO)S(=O)(=O)c1c(Cl)ccc(NC(=O)N[C@@H]2CCC=C2Cl)c1O recorded_number=0.251
compound="CC1=CCC[C@H]1NC(=O)Nc1ccc(Cl)c(S(=O)(=O)C2(C)CCOC2)c1O (some centres undefined)" recorded_number=1.26

Form field: reported IC50 of CC(C)S(=O)(=O)c1c(Cl)ccc(NC(=O)NC2CCCOC2)c1O (racemic)
631

Form field: reported IC50 of CC(C)S(=O)(=O)c1c(Cl)ccc(NC(=O)NC2CCCCC2)c1O
50.1

Form field: reported IC50 of CO[C@@H]1CCC[C@H]1NC(=O)Nc1ccc(Cl)c(S(=O)(=O)C(C)C)c1O (racemic)
251

Form field: reported IC50 of O=C(Nc1ccc(Cl)c(S(=O)(=O)C2COC2)c1O)N[C@@H]1CCC=C1Cl
316

Form field: reported IC50 of CC1=CCCC1NC(=O)Nc1ccc(Cl)c(S(=O)(=O)C(C)C)c1O (racemic)
0.398

Form field: reported IC50 of CC(C)S(=O)(=O)c1c(Cl)ccc(NC(=O)NC2CCCC2(C)C)c1O (racemic)
158

Form field: reported IC50 of CC(C)S(=O)(=O)c1c(Cl)ccc(NC(=O)NC2C=CCCC2)c1O (racemic)
10

* * *

- method_description: Fraction unbound in Han-Wistar SOA rat model blood at 2 mg/kg administered via oral gavage by UPLC/MS/MS analysis
- Format: ADME, organism-based
# note: boundary value 0.01 maps to Not fulfilled; fraction unbound below it maps to Fulfilled

structure_notation=CC1=CCC[C@H]1NC(=O)Nc1ccc(Cl)c(S(=O)(=O)[C@]2(C)CCOC2)c1O group="Not fulfilled"
structure_notation=CC1=CCC[C@H]1NC(=O)Nc1ccc(Cl)c(S(=O)(=O)C(C)(F)F)c1O group=Fulfilled
structure_notation=CC1=CCC[C@H]1NC(=O)Nc1ccc(Cl)c(S(=O)(=O)C(C)(C)[C@H]2CCOC2)c1O group="Not fulfilled"

In plain terms, does CC1=CCC[C@H]1NC(=O)Nc1ccc(Cl)c(S(=O)(=O)[C@@]2(C)CCOC2)c1O come in under 0.01 for fraction unbound?
Not fulfilled

In plain terms, does CC1=CCC[C@H]1NC(=O)Nc1ccc(Cl)c(S(=O)(=O)C(C)(C)CF)c1O come in under 0.01 for fraction unbound?
Not fulfilled

In plain terms, does CC1=CCC[C@H]1NC(=O)Nc1ccc(Cl)c(S(=O)(=O)[C@H]2C[C@H](N3CCCC3)C2)c1O come in under 0.01 for fraction unbound?
Fulfilled

* * *

Listed here are compounds together with their documented efflux ratio at 1.5 h, 3 µM.
- method_description: Efflux ratio of passive permeability in MDCK2-MDR1 cells transduced with BacMam2-BCRP at 3 uM after 90 mins by Transwell assay
- Assay type: ADME, cell-based, Canis lupus familiaris, MDCK-MDR1
- conditions: dog
Enter a number only.

Form field: reported efflux ratio at 1.5 h, 3 µM of CC1=CCC[C@H]1NC(=O)Nc1ccc(Cl)c(S(=O)(=O)C(C)(C)CF)c1O
0.87

Form field: reported efflux ratio at 1.5 h, 3 µM of CCC1(S(=O)(=O)c2c(Cl)ccc(NC(=O)N[C@@H]3CCC=C3C)c2O)CCOCC1
3.2

Form field: reported efflux ratio at 1.5 h, 3 µM of CC1=CCC[C@H]1NC(=O)Nc1ccc(Cl)c(S(=O)(=O)C2(F)CCOC2)c1O (some centres undefined)
7

Form field: reported efflux ratio at 1.5 h, 3 µM of CC1=CCC[C@H]1NC(=O)Nc1ccc(Cl)c(S(=O)(=O)C2CC3(COC3)C2)c1O
25.5

* * *

- assayed_system: C-X-C chemokine receptor type 3 (Homo sapiens, UniProt P49682)
- Sequence (P49682 whole entry): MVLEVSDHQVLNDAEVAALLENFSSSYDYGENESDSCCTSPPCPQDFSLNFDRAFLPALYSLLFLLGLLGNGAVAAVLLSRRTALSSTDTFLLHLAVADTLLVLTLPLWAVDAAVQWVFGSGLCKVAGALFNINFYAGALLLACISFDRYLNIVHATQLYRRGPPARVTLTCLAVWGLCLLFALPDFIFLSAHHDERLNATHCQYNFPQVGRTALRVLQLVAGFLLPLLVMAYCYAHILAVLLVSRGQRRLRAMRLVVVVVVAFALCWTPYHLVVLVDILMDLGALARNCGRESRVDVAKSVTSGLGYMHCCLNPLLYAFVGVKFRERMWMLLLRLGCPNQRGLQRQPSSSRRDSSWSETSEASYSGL
- method_description: Agonist activity at CXCR3 (unknown origin)
pEC50: −log10 of the molar value.
value_type: pEC50

Form field: reported pEC50 of CC1=CCC[C@H]1NC(=O)Nc1ccc(Cl)c(S(=O)(=O)[C@@]2(C)CCOC2)c1O
< 5.00

* * *

- assayed_system: C-X-C chemokine receptor type 2 (Homo sapiens)
- method_description: Antagonist activity at TEV protease cleavage site linked GAL4-VP16-fused recombinant human CXCR2 expressed in cells assessed as inhibition of […] human CXCL1-stimulated beta-arrestin recruitment by CCF4-AM-fluorescence based FRET assay
- Type: cell-based
- conditions: read-out: pIC50 (converted)
# note: boundary value 30 nM maps to not satisfied; IC50 below it maps to satisfied

molecule="CC(C)S(=O)(=O)c1c(Cl)ccc(NC(=O)NC2CCC=C2C(F)(F)F)c1O (racemic)" group=satisfied
molecule=CC1=CCC[C@H]1NC(=O)Nc1ccc(Cl)c(S(=O)(=O)C(C)(C)CN(C)C)c1O group="not satisfied"
molecule=CC(C)(CCO)S(=O)(=O)c1c(Cl)ccc(NC(=O)N[C@H]2CCC=C2Cl)c1O group="not satisfied"

In plain terms, does CC1=CCC[C@H]1NC(=O)Nc1ccc(Cl)c(S(=O)(=O)C2CCN(CCF)CC2)c1O come in under 30 nM for IC50?
satisfied

In plain terms, does CC1=CCC[C@H]1NC(=O)Nc1ccc(Cl)c(S(=O)(=O)[C@@H]2CC[C@@H](O)C2)c1O come in under 30 nM for IC50?
satisfied

* * *

- method_description: Tmax in Wistar rat at 2.38 mg/kg, po measured up to 4 hrs post dose
- Format: ADME, organism-based
- conditions: in vivo
value_type: Tmax (h)
Dear colleague, please return just the value in h, with no unit written.

Form field: reported Tmax of CC1=CCC[C@H]1NC(=O)Nc1ccc(Cl)c(S(=O)(=O)C(C)(C)CF)c1O
2.5

* * *

Listed here are compounds together with their documented solubility at 4 h.
- method_description: Solubility of compound in fasted state simulated intestinal fluid measured after 4 hrs
- Format: physicochemical
Dear colleague, please return just the value in µg/mL, with no unit written.

compound=CC1=CCC[C@H]1NC(=O)Nc1ccc(Cl)c(S(=O)(=O)C(C)(C)C2CCOCC2)c1O value_type="solubility at 4 h" recorded_number=1.4
compound=CC1=CCC[C@H]1NC(=O)Nc1ccc(Cl)c(S(=O)(=O)C2CCN(C3CCC3)CC2)c1O value_type="solubility at 4 h" recorded_number=491

Form field: reported solubility at 4 h of CC1=CCC[C@H]1NC(=O)Nc1ccc(Cl)c(S(=O)(=O)C2CCN(CCF)CC2)c1O
288

Form field: reported solubility at 4 h of CC1=CCC[C@H]1NC(=O)Nc1ccc(Cl)c(S(=O)(=O)[C@H]2C[C@H](N(C)C)C2)c1O
387

* * *

- method_description: Oral bioavailability in dog at 1.29 mg/kg measured up to 4 hrs after dose
- Type: ADME, organism-based, Canis lupus familiaris
- conditions: in vivo
value_type: bioavailability (%)
Dear colleague, please return just the value in %, with no unit written.

Form field: reported bioavailability of CC1=CCC[C@H]1NC(=O)Nc1ccc(Cl)c(S(=O)(=O)[C@@]2(C)CCOC2)c1O
76

* * *

- method_description: Elimination half life in dog at 0.85 mg/kg, iv measured up to 4 hrs post dose
- Assay type: ADME, organism-based, Canis lupus familiaris
- conditions: in vivo, read-out: beta t1/2 (converted)
value_type: half-life (h)
Dear colleague, please return just the value in h, with no unit written.

Form field: reported half-life of CC1=CCC[C@H]1NC(=O)Nc1ccc(Cl)c(S(=O)(=O)[C@@]2(C)CCOC2)c1O
3.6

* * *

- assayed_system: UniProtKB P25025
- method_description: Antagonist activity at TEV protease cleavage site linked GAL4-VP16-fused recombinant human CXCR2 expressed in cells assessed as inhibition of […] human CXCL1-stimulated beta-arrestin recruitment by CCF4-AM-fluorescence based FRET assay
- Assay type: cell-based
- conditions: read-out: IC50
value_type: IC50 (nM)
Dear colleague, please return just the value in nM, with no unit written.

Query the reported IC50 for UniProtKB P25025; item: CC1=CCC[C@H]1NC(=O)Nc1ccc(Cl)c(S(=O)(=O)[C@@]2(C)CCOC2)c1O
5.2
